- Tested on: PfSIP2 AP2 domain 1 (GST-tagged)
- assayInfo: gcPBM binding intensity (ln(normalized median fluorescence intensity)); higher = stronger DNA binding
Whole data set: some 25,000 sequences, median “ln(normalized median fluorescence intensity)” near 7.1, cut for the highest 2% near 10. The sample as a whole holds a higher share of the highest values than the screen did.
reportedEndpoint: gcPBM binding intensity (ln)

[[record]]
sequencecode = "CATATATATTTTATATGTACATATATATTTTATATA [XGTACX_site8665]"
reportedvalue = 7.03

[[record]]
sequencecode = "ATATATTTATTAAGGTGTACAAAAATTATGTTGCAT [XGTACX_site7546]"
reportedvalue = 7.16

[[record]]
sequencecode = "TAAAAATAATATTAATGTACATTACATATTAATATA [XGTACX_site1019]"
reportedvalue = 6.83

[[record]]
sequencecode = "TATTCAAAAATATAAACAATGAAACAGTATAATATG [CACACA_negctrl_site1482]"
reportedvalue = 7.09

[[record]]
sequencecode = "ACATAAAATTGTTAAAAAATTGTATAAATAATACAT [XGTACX_negctrl_site557]"
reportedvalue = 6.81


====

Each entry below carries its recorded gcPBM binding intensity (ln).
- Tested on: PfSIP2 AP2 domain 1 (GST-tagged)
- assayInfo: gcPBM binding intensity (ln(normalized median fluorescence intensity)); higher = stronger DNA binding
The full ranking holds about 25,000 sequences; the median of “ln(normalized median fluorescence intensity)” is about 7.1, and the highest 2% start at about 10. Many of the other results were omitted from the sample, so the highest values are more common in it than they were.
reportedEndpoint: gcPBM binding intensity (ln)

[[record]]
sequencecode = "ATATATATATTTATATTTATATGTAAATATCAACGT [TGCATGCA_negctrl_site32]"
reportedendpoint = "gcPBM binding intensity (ln)"
reportedvalue = 8.59

[[record]]
sequencecode = "ACAAGTATTCCTTTTGCACACCTTTCTGCACCTTAT [CACACA_site3873]"
reportedendpoint = "gcPBM binding intensity (ln)"
reportedvalue = 11.7

[[record]]
sequencecode = "TTCTGTATACGGTGTGCACACAATTAAAAAAAAAAA [CACACA_site1416]"
reportedendpoint = "gcPBM binding intensity (ln)"
reportedvalue = 9.47

[[record]]
sequencecode = "TAATTATGCAGACACACACACACACCCAACTAAAAA [CACACA_site2569]"
reportedendpoint = "gcPBM binding intensity (ln)"
reportedvalue = 7.27

[[record]]
sequencecode = "CACATATATATGTGTGCATGTTGTATTATATATTTA [TGCATGCA_site632]"
reportedendpoint = "gcPBM binding intensity (ln)"
reportedvalue = 8.48

[[record]]
sequencecode = "TTTTATTCCTTCTTTGCACACGTTTAAAAATATATA [CACACA_site2899]"
reportedendpoint = "gcPBM binding intensity (ln)"
reportedvalue = 8.04

[[record]]
sequencecode = "TTTATTTTTATTTTTGTGCACGGGATTAAATAAAAG [GTGCAC_site9842]"
reportedendpoint = "gcPBM binding intensity (ln)"
reportedvalue = 10.5

[[record]]
sequencecode = "TATATATTTTCTTTTGCACACTGTTTTCCTTTTTTT [CACACA_site2739]"
reportedendpoint = "gcPBM binding intensity (ln)"
reportedvalue = 7.02


====

- System: PfSIP2 AP2 domain 1 (GST-tagged)
- assayInfo: gcPBM binding intensity (ln(normalized median fluorescence intensity)); higher = stronger DNA binding
In all, about 25,000 sequences were measured (“ln(normalized median fluorescence intensity)”: median about 7.1, highest 2% from about 10 on). This is one part of a sample in which the highest values are shown more often than they occur.
Each entry below carries its recorded gcPBM binding intensity (ln).
reportedEndpoint: gcPBM binding intensity (ln)

[[record]]
sequencecode = "CATTTGCACCCGCACACACACATAAAAAGAAAAATA [CACACA_site4350]"
targetsystem = "PfSIP2 AP2 domain 1 (GST-tagged)"
reportedvalue = 11.6

[[record]]
sequencecode = "AATAAATAAATATATATATATATATAATATCATAAA [CACACA_negctrl_site337]"
targetsystem = "PfSIP2 AP2 domain 1 (GST-tagged)"
reportedvalue = 7.29

[[record]]
sequencecode = "AATACAATTTTTAACACACACACAATAATACAGATA [CACACA_site4823]"
targetsystem = "PfSIP2 AP2 domain 1 (GST-tagged)"
reportedvalue = 7.17

[[record]]
sequencecode = "ATCATTTGCATACGCACACACACATAAAAAGAAAAA [CACACA_site355]"
targetsystem = "PfSIP2 AP2 domain 1 (GST-tagged)"
reportedvalue = 7.54

[[record]]
sequencecode = "ACCCATTGCTCACGTGCACACATAGAAAAATAATTC [CACACA_site4389]"
targetsystem = "PfSIP2 AP2 domain 1 (GST-tagged)"
reportedvalue = 10.1

[[record]]
sequencecode = "GACTGAACAACATAATGTACATTTATAAGTATATAT [XGTACX_site3813]"
targetsystem = "PfSIP2 AP2 domain 1 (GST-tagged)"
reportedvalue = 7.15

[[record]]
sequencecode = "CTGTCTGCAGATATGGTGCATTTGTAAGATCTTACA [GTGCAC_site9870]"
targetsystem = "PfSIP2 AP2 domain 1 (GST-tagged)"
reportedvalue = 10.4

[[record]]
sequencecode = "TGTGCATAAATTTATGCACACATAAAAAAAAAAAAA [CACACA_site8954]"
targetsystem = "PfSIP2 AP2 domain 1 (GST-tagged)"
reportedvalue = 9.95

[[record]]
sequencecode = "TTGTATCCTTAATGCATGCACCAAATAACAAAAGTA"
targetsystem = "PfSIP2 AP2 domain 1 (GST-tagged)"
reportedvalue = 10.6

[[record]]
sequencecode = "TTTATATTTAAATATATATGAGAAAACACAAAATAT [TGCATGCA_negctrl_site211]"
targetsystem = "PfSIP2 AP2 domain 1 (GST-tagged)"
reportedvalue = 7.34

[[record]]
sequencecode = "AAAAAAAGAAATTAGGTGCATAGCATTAACCGATAA [GTGCAC_site9582]"
targetsystem = "PfSIP2 AP2 domain 1 (GST-tagged)"
reportedvalue = 10.1

[[record]]
sequencecode = "TTTCTATATAGATTTGCACACATAAAAATGCTTATA [CACACA_site2390]"
targetsystem = "PfSIP2 AP2 domain 1 (GST-tagged)"
reportedvalue = 7.18

[[record]]
sequencecode = "GGTATATATTCTATCACACATATTTCCATGAAAATA [CACACA_site4728]"
targetsystem = "PfSIP2 AP2 domain 1 (GST-tagged)"
reportedvalue = 7.29

[[record]]
sequencecode = "ACAAATATGAGAAATTGTACATATAATAAAATAGTA [XGTACX_site2573]"
targetsystem = "PfSIP2 AP2 domain 1 (GST-tagged)"
reportedvalue = 6.93

[[record]]
sequencecode = "TTAAAAAAGTAATTAACACACAATAATGTAATGCAT [CACACA_site4176]"
targetsystem = "PfSIP2 AP2 domain 1 (GST-tagged)"
reportedvalue = 6.72

[[record]]
sequencecode = "TAAATTGAGTATATTACACACATATAAATATATTAT [CACACA_site4027]"
targetsystem = "PfSIP2 AP2 domain 1 (GST-tagged)"
reportedvalue = 6.88

[[record]]
sequencecode = "CATTTGCACACGCACACACACATAAAAAGAAAAATA [CACACA_site6297]"
targetsystem = "PfSIP2 AP2 domain 1 (GST-tagged)"
reportedvalue = 7.71

[[record]]
sequencecode = "TATTGTATCCTTAATGCATGCACCAAATAAAAAAAG [TGCATGCA_site541]"
targetsystem = "PfSIP2 AP2 domain 1 (GST-tagged)"
reportedvalue = 11.1

[[record]]
sequencecode = "CTATAAATATTTTATTGTACACACTTTTTATGAATG [XGTACX_site6711]"
targetsystem = "PfSIP2 AP2 domain 1 (GST-tagged)"
reportedvalue = 7.22

[[record]]
sequencecode = "TTTTTGTATCCTTTTAATATTAAATAAAAGGAATGT [CACACA_negctrl_site1468]"
targetsystem = "PfSIP2 AP2 domain 1 (GST-tagged)"
reportedvalue = 7.02


====

- Tested on: PfSIP2 AP2 domain 1 (GST-tagged)
- assayInfo: gcPBM binding intensity (ln(normalized median fluorescence intensity)); higher = stronger DNA binding
In all, about 25,000 sequences were measured (“ln(normalized median fluorescence intensity)”: median about 7.1, highest 2% from about 10 on). Shown is part of a subset that was picked to be rich in the highest values.
reportedEndpoint: gcPBM binding intensity (ln)

[[record]]
sequencecode = "AAAATACACGATAGTTGTACATTAAATGTATACAAT [XGTACX_site360]"
targetsystem = "PfSIP2 AP2 domain 1 (GST-tagged)"
reportedendpoint = "gcPBM binding intensity (ln)"
reportedvalue = 6.91

[[record]]
sequencecode = "TGTTTATTTTTTTTATGTACTTATTTTTTATTGCAT [XGTACX_site719]"
targetsystem = "PfSIP2 AP2 domain 1 (GST-tagged)"
reportedendpoint = "gcPBM binding intensity (ln)"
reportedvalue = 7.61

[[record]]
sequencecode = "TATTATATTTTTATTTGTACGTAAAATTAAGTTATG [XGTACX_site2405]"
targetsystem = "PfSIP2 AP2 domain 1 (GST-tagged)"
reportedendpoint = "gcPBM binding intensity (ln)"
reportedvalue = 7.14

[[record]]
sequencecode = "TGAGAGAGAAACGTAGTGCATAAAATCAAATTTAGA [GTGCAC_site9737]"
targetsystem = "PfSIP2 AP2 domain 1 (GST-tagged)"
reportedendpoint = "gcPBM binding intensity (ln)"
reportedvalue = 7.82

[[record]]
sequencecode = "AAAATTAAAAATAACACACACATATTTATATTTATA [CACACA_site7329]"
targetsystem = "PfSIP2 AP2 domain 1 (GST-tagged)"
reportedendpoint = "gcPBM binding intensity (ln)"
reportedvalue = 6.87

[[record]]
sequencecode = "TACAATATATTTATAGTGCATATTACTTTTAACTTT"
targetsystem = "PfSIP2 AP2 domain 1 (GST-tagged)"
reportedendpoint = "gcPBM binding intensity (ln)"
reportedvalue = 8.41

[[record]]
sequencecode = "TAAAATATTATCTACGCACACATTAAAATAAAAAAA [CACACA_site3709]"
targetsystem = "PfSIP2 AP2 domain 1 (GST-tagged)"
reportedendpoint = "gcPBM binding intensity (ln)"
reportedvalue = 7.17

[[record]]
sequencecode = "TGCCCTTTGGTTATAACACACATGCACACGTAAATA [CACACA_site7750]"
targetsystem = "PfSIP2 AP2 domain 1 (GST-tagged)"
reportedendpoint = "gcPBM binding intensity (ln)"
reportedvalue = 7.71

[[record]]
sequencecode = "ACATATGGCACATATGTACACACGTATAGATAATAT [CACACA_site2024]"
targetsystem = "PfSIP2 AP2 domain 1 (GST-tagged)"
reportedendpoint = "gcPBM binding intensity (ln)"
reportedvalue = 7.19

[[record]]
sequencecode = "GTATGTAATATTTTAGTGCAAAAAAAAAAAAAAAAA [GTGCAC_site9790]"
targetsystem = "PfSIP2 AP2 domain 1 (GST-tagged)"
reportedendpoint = "gcPBM binding intensity (ln)"
reportedvalue = 8.3

